Recorded Potency (IU/ml) values for a group of binders are listed next.
- study_system: T1, glycoprotein of rabies virus strain CVS-11 (rabies virus strain CVS-11, UniProt O92284 20-524)
- T1 sequence: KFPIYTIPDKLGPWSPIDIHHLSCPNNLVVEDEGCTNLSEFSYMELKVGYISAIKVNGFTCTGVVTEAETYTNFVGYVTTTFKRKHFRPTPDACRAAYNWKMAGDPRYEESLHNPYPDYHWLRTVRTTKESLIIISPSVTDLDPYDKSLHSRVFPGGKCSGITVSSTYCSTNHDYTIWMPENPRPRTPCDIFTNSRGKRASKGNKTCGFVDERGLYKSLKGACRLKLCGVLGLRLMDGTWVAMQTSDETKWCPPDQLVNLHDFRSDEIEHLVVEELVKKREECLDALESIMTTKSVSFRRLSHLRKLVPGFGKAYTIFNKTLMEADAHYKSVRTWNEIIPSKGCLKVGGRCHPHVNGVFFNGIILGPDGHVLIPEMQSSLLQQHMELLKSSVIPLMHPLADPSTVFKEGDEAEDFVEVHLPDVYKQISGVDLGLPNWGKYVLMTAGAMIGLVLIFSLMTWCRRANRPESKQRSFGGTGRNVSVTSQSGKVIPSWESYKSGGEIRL
- assay_details: cell-based or functional assay

Worked cases, answers included:
- binder: "SC04-021 (scFv) scFv: AMAEVQLVESGGGVVQPGRSLRLSCAASGFTFSSYGMHWVRQAPGKGLEWVAVISYDGSSKYYADSVKGRFTISRDNSKNTLYLQMNSLRAEDTAVYYCAKGSVLGDAFDIWGQGTMVTVSSGTGGSGGTGSGTGGSTDIQMTQSPFSLSASVGDRVTITCRASQGIGSSLAWYQQKPGKAPKLLIYAASSLQSGVPSRFSGSGSGTDFTLTISSLQPEDFATYFCLQHHDYPLTFGGGTKLEIKRAAA"
  recorded_endpoint: "Potency (IU/ml)"
  experimental_result: "1.3 IU/ml"
- binder: "SC04-125 (scFv) scFv: AMAQVQLVESGGGVVQPGRSLRLSCAASGFTFSSYGMHWVRQAPGKGLEWVAVISYDGSDKYYADSVKGRFTISRDNSKNTLYLQMNSLRAEDTAVYYCAKIATAGTGFDYWGQGTLVTVSSGTGGSGGTGSGTGGSTDIQMTQSPSSVSASVGDRVTITCRASQGISSYLAWYQQKPGKAPKLLIYDASSLESGVPSRFSGSGSGTEFTLTISSLQPDDFATYYCQQLNSYPLTFGGGTKVEIKRAAA"
  recorded_endpoint: "Potency (IU/ml)"
  experimental_result: "3 IU/ml"
- binder: "SC04-097 (scFv) scFv: AMAEVQLVQSGGHLVQPGGSLRLSCAASGFTFSSYAMSWVRQAPGKGLEWVSLIIGSGRSTYYADSVKGRFTISRDNSKNTLYLQMNSLRAEDTAVYYCAKTASNLGRGGMDVWGQGTTVTVSSGTGGSGGTGSGTGGSTDIQLTQSPSSLSASVGDRVTITCRASQGISSHLAWYQQKPGKAPKLLIYAASSLQSGVPSRFSGSGSGTEFTLTISSLQPEDFATYYCQQFNSYPITFGQGTRLEIKRAAA"
  recorded_endpoint: "Potency (IU/ml)"
  experimental_result: "0.2 IU/ml"
- binder: "SC04-164 (scFv) scFv: AMAEVQLVESGGGVVQPGRSLRLSCAASGFTFSSYGMHWVRQAPGKGLEWVAVISYDGSSKYYADSVKGRFTISRDNSKNTLYLQMNSLRAEDTAVYYCAKGSVLGDAFDIWGQGTMVTVSSGTGGSGGTGSGTGGSTDIQLTQSPSSVSASVGDRVTITCRASQGISSWLAWYQQKPGKAPKLLIYAASSLQSGVPSRFSGSGSGTDFTLTISSLQPEDFATYYCQQANSFPLTFGGGTKVDIKRAAA"
  recorded_endpoint: "Potency (IU/ml)"
  experimental_result: "0.3 IU/ml"
- binder: "SC04-038 (scFv) scFv: AMAQVQLVQSGGGVVQPGRSLRLSCAASGFTFSSYGMHWVRQAPGKGLEWVAVISYDGSSKYYADSVKGRFTISRDNSKNTLYLQMNSLRAEDTAVYYCAKGSVLGDAFDIWGQGTMVTVSSGTGGSGGTGSGTGGSTDIQLTQSPSSVSASVGDRVTITCRASQGISGWLAWYQQKPEKAPKLLIYAASSLQRGVPSRFSGSGSGTDFTLTISSLQPEDFATYYCQQANSFPPTFGQGTRLEIKRAAA"
  recorded_endpoint: "Potency (IU/ml)"
  experimental_result: "2 IU/ml"
- binder: "SC04-031 (scFv) scFv: AMAEVQLVESGGGVVQPGRSLRLSCAASGFTFSSYGMHWVRQAPGKGLEWVAVISYDGSNKYYADSVKGRFTISRDNSKNTLYLQMNSLRAEDTAVYYCAKGSVLGDAFDIWGQGTMVTVSSGTGGSGGTGSGTGGSTDIQMTQSPSFVSASVGDRVTITCRASQGISSWLAWYQQKPGKAPKLLIYAASSLQSGVPSRFSGSGSGTDFTLTISSLQPEDFATYYCQQANSFPLTFGGGTKVEIKRAAA"
  recorded_endpoint: "Potency (IU/ml)"
  experimental_result: "0.7 IU/ml"

Quick note, Potency (IU/ml) for SC04-144 (scFv) scFv: AMAQVQLQELGGGVVQPGRSLRLSCAASGFTFGSYGMHWVRQAPGKGLEWVATISYDGSIKDYADSEKGRFTISRDNSKNTLYLQMNSLRAEDTAVYYCAKGGKTGEFDYWGQGTLVTVSSGTGGSGGTGSGTGGSTDIQLTQSPSSLSASVGDRVTITCRASQGISSYLAWYQQKPGKGPKLLIYAASTLQSGVPSRFSGSGSGTDFSLTISSLQPEDLATYYCQQYDSYPLTFGGGTKVEIKRAAA landed at 6 IU/ml

Quick note, Potency (IU/ml) for SC04-103 (scFv) scFv: AMAQVQLQESGGGVVQPGRSLRLSCAASGFTFSSYGMHWVRQAPGKGLEWVAVILYDGSDKYYADSVKGRFTISRDNSKNTLYLQMNSLRAEDTAVYYCAKVAVAGESFDSWGRGTLVTVSSGTGGSGGTGSGTGGSTDIQLTQSPSSVSASVGDRVTITCRASQGISSWLAWYQQKPGKAPRSLIYDASSLQSGVPSRFSGSGSGTDFTLTISSLQPEDFATYYCQQADSFPITFGQGTRLEIKRAAA landed at 0.3 IU/ml

Quick note, Potency (IU/ml) for SC04-126 (scFv) scFv: AMAQVTLKESGPTLVNPTQTLTLTCTFSGFSLSTGGVGVGWFRQPPGKALEWLARIDWDDDKYYSTSLKTRLTISKDTSKIQVVLTMTNMDPVDTATYYCARMGFTGTYFDYWGQGTLVTVSSGTGGSGGTGSGTGGSTQSVLTQPPSVSVAPGKTARITCGGNNIGSKSVHWYQQKPGQAPVLVIYYDSDRPSGIPERFSGSNSGNTATLTISRVEAGDEADYYCQVWDSSSDHPYVFGTGTKLTVLGAAA landed at 0.1 IU/ml
